Target of assay: Mushroom tyrosinase (diphenolase) (Agaricus bisporus, UniProt C7FF04)
Sequence (C7FF04 1-392): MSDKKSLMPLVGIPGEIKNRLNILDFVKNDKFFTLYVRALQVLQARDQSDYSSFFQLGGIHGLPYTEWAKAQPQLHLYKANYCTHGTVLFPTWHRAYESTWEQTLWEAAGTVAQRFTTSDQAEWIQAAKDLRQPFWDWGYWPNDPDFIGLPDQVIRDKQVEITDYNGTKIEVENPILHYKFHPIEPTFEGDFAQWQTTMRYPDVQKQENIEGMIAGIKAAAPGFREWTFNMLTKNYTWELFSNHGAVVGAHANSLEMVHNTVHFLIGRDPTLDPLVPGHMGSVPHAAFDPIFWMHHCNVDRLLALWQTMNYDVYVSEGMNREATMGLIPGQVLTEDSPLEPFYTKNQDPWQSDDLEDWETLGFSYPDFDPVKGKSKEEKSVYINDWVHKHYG
Property name: pKi
// scale note: pKi = -log10(conc_M); give the bare number

Fill in: pKi of O=C1C=C(c2ccc(O)cc2O)C(Cc2ccc(O)cc2)O1 (stereo not shown) is ___ 5.71

* * *

Target of assay: Mushroom tyrosinase (diphenolase) (Agaricus bisporus)
Construct: purchased Sigma-Aldrich Co., St. Louis, MO, USA
Assay overview: Mushroom tyrosinase diphenolase inhibition (L-DOPA as substrate, 475 nm)
Assay type: biochemical
Experimental setup: substrate L-DOPA, pH 6.8, 30 °C; read-out: L-DOPA IC50 Value (diphenolase)
Property name: pIC50
// scale note: pIC50 = -log10(conc_M); give the bare number

// map O=C1C=C(c2ccc(O)cc2O)C(Cc2ccc(O)cc2)O1 (centres unmarked) to recorded pIC50 (system: Mushroom tyrosinase (diphenolase) (Agaricus bisporus)) 5.41

* * *

Target of assay: tyrosinase (monophenolase) (Agaricus bisporus, UniProt C7FF04)
Sequence (C7FF04 1-392): as above
Assay overview: Time-dependent assays and progress curves (slow-binding kinetics, lag phase)
Experimental setup: Kiapp = k4/k3
Property name: pKi
// scale note: pKi = -log10(conc_M); give the bare number

Fill in: pKi of O=C1C=C(c2ccc(O)cc2O)C(Cc2ccc(O)cc2)O1 (stereo not shown) [Compound 1, Puerol A] is ___ 6.97

* * *

Target of assay: Mushroom tyrosinase (monophenolase) (Agaricus bisporus)
Construct: purchased Sigma-Aldrich Co., St. Louis, MO, USA
Assay overview: Mushroom tyrosinase monophenolase inhibition (L-tyrosine as substrate, 475 nm)
Assay type: biochemical
Experimental setup: substrate L-tyrosine; read-out: IC50 monophenolase
Property name: IC50 (µM)
Write the answer as a number in µM, unit excluded.

Fill in: IC50 of O=C1C=C(c2ccc(O)cc2O[C@@H]2O[C@H](CO)[C@@H](O)[C@H](O)[C@H]2O)C(Cc2ccc(O)cc2)O1 (stereo partly shown) [Compound 2, Kuzubutenolide A] is ___ 1500

* * *

Target of assay: Mushroom tyrosinase (monophenolase) (Agaricus bisporus, UniProt C7FF04)
Sequence (C7FF04 1-392): as above
Property name: pKi
// scale note: pKi = -log10(conc_M); give the bare number

Fill in: pKi of O=C1C=C(c2ccc(O)cc2O)C(Cc2ccc(O)cc2)O1 (stereo not shown) is ___ 6.06
